# TARGET_OR_TEST_SYSTEM: serotonin 1A receptor (Rattus norvegicus, UniProt P19327)
# Construct: To the receptor fraction of the hippocampus were added a test compound and 0.5 nM of [^3H]; 8-hydroxy-dipropylaminotetralin; from tissue; host or cells: rat hippocampus membrane fraction
# Sequence (P19327 whole entry): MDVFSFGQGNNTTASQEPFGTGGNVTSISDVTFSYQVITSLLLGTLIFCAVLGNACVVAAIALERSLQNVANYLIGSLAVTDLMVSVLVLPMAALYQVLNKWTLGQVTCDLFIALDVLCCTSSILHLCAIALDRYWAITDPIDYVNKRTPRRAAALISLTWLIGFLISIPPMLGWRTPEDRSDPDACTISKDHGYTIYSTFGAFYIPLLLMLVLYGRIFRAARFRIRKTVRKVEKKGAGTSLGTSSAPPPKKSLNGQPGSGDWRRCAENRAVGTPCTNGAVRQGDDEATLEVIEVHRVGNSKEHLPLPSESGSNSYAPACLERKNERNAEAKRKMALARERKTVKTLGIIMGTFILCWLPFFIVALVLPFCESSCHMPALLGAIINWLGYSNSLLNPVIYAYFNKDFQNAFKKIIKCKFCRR
# ASSAY_NAME: Binding test on [3H] 8-hydroxy-dipropylaminotetralin, hippocampus receptor fraction
# Design: species or system SD rats
# EXPERIMENTAL_CONTEXT: rat hippocampus receptor fraction, 0.5 nM [3H] 8-OH-DPAT, room temperature 30 min; read-out: 5HT1
Structures can show the parent of a compound that is named as a salt.
PROPERTY_NAME: pKi
Just the number, please; pKi means minus log10 of the concentration in mol/L.

Record excerpt, results attached:
# COMPOUND, pKi
records = [
    ("CCN1CCN(c2nc(-c3ccc(C(O)CO)cc3)cc3ccccc23)CC1 (stereo not shown) [Example 387, Dihydrochloride]", 7.60),
    ("CCCS(=O)(=O)Nc1ccc(-c2cc3ccccc3c(N3CCN(CC)CC3)n2)cc1 [Example 72, Hydrochloride]", 7.82),
    ("CCN1CCN(c2nc(-c3ccc(OCCO)nc3)cc3ccccc23)CC1", 7.57),
]

Shift focus to the following entry.
query: Please report pKi with serotonin 1A receptor (Rattus norvegicus, UniProt P19327) for item CCN1CCN(c2nc(-c3ccc(OCC(C)O)cc3)cc3ccoc23)CC1 (stereo in doubt) [Example 304, dihydrochloride] .
result: 7.81
